Listing of recorded Inhibition rate by entry.
- TARGET_SYSTEM: trkA receptor (Rattus norvegicus, UniProt P35739)
- Construct: from tissue; host or cells: Wistar female rat (SLC), skin of the back, in vivo
- Sequence (P35739 33-799): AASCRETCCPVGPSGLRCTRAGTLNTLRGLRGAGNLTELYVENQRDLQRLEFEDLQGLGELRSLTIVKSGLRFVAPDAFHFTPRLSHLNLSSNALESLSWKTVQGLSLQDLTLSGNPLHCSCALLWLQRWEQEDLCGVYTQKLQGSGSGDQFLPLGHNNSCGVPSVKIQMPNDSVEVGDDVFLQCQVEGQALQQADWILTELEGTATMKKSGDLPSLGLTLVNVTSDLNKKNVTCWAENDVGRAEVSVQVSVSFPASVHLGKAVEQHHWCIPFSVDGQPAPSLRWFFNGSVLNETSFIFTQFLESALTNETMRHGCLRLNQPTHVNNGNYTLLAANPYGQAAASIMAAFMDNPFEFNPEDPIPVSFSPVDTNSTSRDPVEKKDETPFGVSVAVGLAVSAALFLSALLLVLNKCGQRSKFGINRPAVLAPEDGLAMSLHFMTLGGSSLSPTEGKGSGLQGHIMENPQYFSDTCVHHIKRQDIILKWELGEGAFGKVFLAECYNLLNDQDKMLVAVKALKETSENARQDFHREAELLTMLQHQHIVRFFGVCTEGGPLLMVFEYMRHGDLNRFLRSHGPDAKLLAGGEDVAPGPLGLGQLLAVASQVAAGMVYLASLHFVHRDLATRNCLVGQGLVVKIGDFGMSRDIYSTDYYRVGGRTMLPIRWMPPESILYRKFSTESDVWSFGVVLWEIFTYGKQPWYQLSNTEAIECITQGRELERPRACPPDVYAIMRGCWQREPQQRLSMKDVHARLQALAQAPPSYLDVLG
- RUN_DESCRIPTION: Inhibitory activity on enhanced vascular permeability caused by NGF in rat (Evans blue)
- Type: in vivo
- CONDITIONS: Wistar female rat, 10 mg/kg oral, NGF intracutaneous 60 min after administration, vehicle group set at 100%
Please state the figure in %; there is no need to write the unit.

Worked cases, Inhibition rate given:
- COMPOUND_SMILES: "COCCN(C)c1nc(C(=O)Nc2ccccc2N2CCN(CC(N)=O)CC2)cs1.Cl"
  REPORTED_RESULT: 97
- COMPOUND_SMILES: "NC(=O)CN1CCN(c2ccccc2NC(=O)c2csc(N3CCOCC3)n2)CC1"
  REPORTED_RESULT: 93

Now look at this one.
Req: Given the molecule Cl.NC(=O)C1CCN(c2ncccc2NC(=O)c2coc(N3CCOCC3)n2)CC1 , what is its reported Inhibition rate?
Resp: 85
